Values compiled from patent US20240374739A1.

System: Neurodegenerated cells (Parkinson's disease model)
Test: Gene expression analysis by qRT-PCR for neuronal, dopaminergic and PD associated markers
Format: cell-based, human
Conditions: 24 hours drug treatment

COMPOUND: CC(C)(Sc1cc(C(C)(C)C)c(O)c(C(C)(C)C)c1)Sc1cc(C(C)(C)C)c(O)c(C(C)(C)C)c1 [probucol]
TH gene expression (qRT-PCR): clearly upregulated
--
COMPOUND: N[C@@H](Cc1ccc(O)c(O)c1)C(=O)O [L-Dopa, Levodopa]
TH gene expression (qRT-PCR): clearly upregulated
